# pIC50 per entry
# System: AI-2-mediated quorum sensing
# Procedure text: microbe, parasite or virus in culture
# Format: cell-based, Vibrio harveyi
# Conditions: Vibrio harveyi, read-out: IC50 value, inhibition of AI-2-mediated quorum sensing (V. harveyi luminescence), V. harveyi MM32, DPD 5 μM, boric acid 1 mM; tested at least 3 times
pIC50: −log10 of the molar value.

{"Molecule": "CCOC(=O)CS(=O)(=O)c1ccc(-c2ccc3c(c2)OCCO3)cc1 [Compound H20]", "pIC50": 3.80}
{"Molecule": "CCOC(=O)CS(=O)(=O)c1ccc(-c2ccc(C)cc2)cc1 [Compound H21]", "pIC50": 5.09}
{"Molecule": "CCOC(=O)CS(=O)(=O)c1ccc(-c2ccc(C(N)=O)cc2)cc1 [Compound H24]", "pIC50": 4.50}
{"Molecule": "Oc1ccccc1O [Compound 63, catechol]", "pIC50": 4.23}
{"Molecule": "CCOC(=O)CS(=O)(=O)c1cccc(Br)c1 [Compound H28]", "pIC50": 3.79}
{"Molecule": "Oc1cccc(O)c1O [Compound 61, pyrogallol]", "pIC50": 5.70}
{"Molecule": "CCOC(=S)CS(=O)(=O)c1ccc(Br)cc1 [Compound H14]", "pIC50": 4.86}
{"Molecule": "CCOC(=S)CS(=O)(=O)c1ccc(OC)cc1 [Compound H18]", "pIC50": 4.59}
{"Molecule": "CC(C)OC(=S)CS(=O)(=O)c1ccccc1 [Compound 23]", "pIC50": 4.48}
{"Molecule": "c1ccc2c(c1)Nc1ccccc1S2 [Compound 62, phenothiazine]", "pIC50": 5.00}
{"Molecule": "CCCS(=O)(=O)CC(=S)OCC [Compound H26]", "pIC50": 4.67}
